Task for the reader: assign each of the following compounds its reported inhibition.
methodSummary: DAX1 (NR0B1) inhibitors on StAR promoter, primary screen, cell-based, luminescence, SF-1 (NR5A1), full-length DAX-1 (AID 652010);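 also: 0% = DAX-1 cells with DMSO and 100% = cells lacking DAX-1 with DMSO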
reportedConditions: HEK293T StAR-luciferase reporter, SF-1/DAX-1 repression relief; at 6.8 µM; hits give high values
Among all 370,000 compounds or so, about 4,100 (1.1%) were called active. Many of the other results were omitted from the sample, so actives are more common in it than they were.
Give bare numbers, in %.

Some solved entries appear below for comparison.
COC(=O)CCc1sc(Nc2ccc(Br)cc2)nc1-c1ccc(OC)cc1: -0.04
COC(=O)c1cccc(Cn2ccc3ccc(-c4ccc5ccn(C(=O)C6CCCCC6)c5c4)cc32)c1: 0.41
COc1cccc(NC(=O)COc2cccnc2[N+](=O)[O-])c1: 1.83
COc1ccc(C2=Nc3cc(C)ccc3OC2)cc1: 4.81
Cc1ccccc1OCC(=O)Nc1ccc(N2CCN(C(=O)C(C)C)CC2)c(Cl)c1: -2.45
Cn1c(SCC(=O)c2cccs2)nnc1-c1ccco1: 0.71

Please go through the list and note inhibition for each compound.
1. Cc1ccc(Cn2cc(COC(=O)N(C)Cc3ccccc3)nn2)cc1
2. Cn1c(-c2ccco2)nc2cc3ccccc3cc21

A)
1: -0.12; 2: 4.28

Please go through the list and note inhibition for each compound.
1. O=C(NCC1CCCO1)c1cc2c(s1)CCCC2 (stereo unspecified)
2. CC(C)C[C@H]1CN([C@@H](CC(C)C)CN2CCC[C@@H]2CN2C(=O)C(=O)NC[C@@H]2Cc2ccccc2)C(=O)C(=O)N1CCc1ccccc1
3. O=C(NCCCn1ccnc1)c1cc2c(s1)CCCC2

A)
1. 4.81
2. -1.31
3. -1.19

---

Task for the reader: assign each of the following compounds its reported inhibition.
methodSummary: DAX1 (NR0B1) inhibitors on StAR promoter, primary screen, cell-based, luminescence, SF-1 (NR5A1), full-length DAX-1 (AID 652010);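 also: 0% = DAX-1 cells with DMSO and 100% = cells lacking DAX-1 with DMSO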
reportedConditions: HEK293T StAR-luciferase reporter, SF-1/DAX-1 repression relief; at 6.8 µM; hits give high values
Screen size: about 370,000 compounds; about 4,100 (1.1%) were called active. Only a selection was taken, and actives are over-represented in it overall.

Some solved entries appear below for comparison.
COc1ccc(CSc2nnc(-c3cccc(C)c3)n2C)cc1: -0.99% (inactive)
COc1ccc(-c2ccc3c(n2)CCCN3S(=O)(=O)c2ccc(C)cc2)cc1: -0.47% (inactive)

response.value for COC(=O)[C@H](C(C)C)N(CCCc1cn(Cc2ccccc2)nn1)S(=O)(=O)c1ccc(F)cc1Br (field: inhibition) = -1.67% (inactive)

---

methodSummary: DAX1 (NR0B1) inhibitors on StAR promoter, primary screen, cell-based, luminescence, SF-1 (NR5A1), full-length DAX-1 (AID 652010);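 also: 0% = DAX-1 cells with DMSO and 100% = cells lacking DAX-1 with DMSO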
reportedConditions: HEK293T StAR-luciferase reporter, SF-1/DAX-1 repression relief; at 6.8 µM; hits give high values
Hit rate of the full screen: of about 370,000 compounds, about 4,100 (1.1%) were called active. This excerpt belongs to a sample that is enriched for actives.
measurementKind: inhibition (%)
Give bare numbers, in %.

Some solved entries appear below for comparison.
COc1cc2c(cc1OC)/C(=C/C(=O)c1ccc(NC(C)=O)cc1)NCC2: -0.03
O=C(NCCc1ccc(F)cc1)c1ccc2nccnc2c1: 7.15
CN(C)S(=O)(=O)c1cccc(C(=O)N/N=C\c2ccco2)c1: 0.25

Please go through the list and note inhibition for each molecule.
1. CSCCC(NC(=O)c1ccco1)C(=O)NCCc1ccc(F)cc1 (configuration not stated)
2. O=C(CSc1nnc(-c2ccco2)o1)NCC(=O)c1ccccc1
3. CSCCC(NC(=O)c1ccco1)C(=O)Nc1cc(C)ccn1 (configuration not stated)

A)
0.47
1.51
11

Please go through the list and note inhibition for each molecule.
1. CCCOc1ccc(-c2c(C(=O)N/N=C/c3ccco3)nnn2-c2nonc2N)cc1
2. Cc1ccccc1NC(=O)COC(=O)c1ccc(Sc2ncn[nH]2)c([N+](=O)[O-])c1
3. CN1CCN(CCNC(=O)Nc2ccccc2[N+](=O)[O-])CC1
4. COc1ccc(-n2c(COc3ccccc3)nnc2SCC(=O)Nc2ccc3c(c2)OCO3)cc1
5. C=CCn1c(SCC(=O)/C(C#N)=C(\C)N)nc2sc(C)c(C)c2c1=O

A)
[-0.59, 2.48, -0.08, -0.36, -0.39]

Please go through the list and note inhibition for each molecule.
1. COc1ccc(NC(=O)CSCc2ccc([N+](=O)[O-])cc2)cc1OC
2. CCOC(=O)c1c(S(=O)(=O)NCC(=O)Nc2ccc(C)cc2)c(C)n(C)c1C
3. Cc1cc(=O)n(C)c(=O)n1CCCNc1ccccc1
4. CC(=O)O[C@@]1(C(C)=O)CCC2[C@H]3C=C(C)C4=CC(=O)CC[C@@]4(C)C3CC[C@]21C (some centres not stated)
5. Cc1ccc(-n2c(SCC(=O)Nc3ccc(S(=O)(=O)Nc4nccs4)cc3)nnc2-c2ccccn2)cc1
6. CSCCC(NC(=O)c1ccco1)C(=O)OCC(=O)Nc1ncc(Cl)c(C)c1Cl (configuration not stated)

A)
1. 0.2
2. -0.57
3. 0.36
4. -0.75
5. 0.28
6. -0.11

Please go through the list and note inhibition for each molecule.
1. O=C(NN=CC=Cc1ccccc1)C(O)C(O)C(=O)NN=CC=Cc1ccccc1 (configuration not stated)
2. C=CCn1c(SCC(=O)NCCCO)nc2sc3c(c2c1=O)CCC3

A)
1: 0.1; 2: 0.03

---

methodSummary: DAX1 (NR0B1) inhibitors on StAR promoter, primary screen, cell-based, luminescence, SF-1 (NR5A1), full-length DAX-1 (AID 652010);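 also: 0% = DAX-1 cells with DMSO and 100% = cells lacking DAX-1 with DMSO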
reportedConditions: HEK293T StAR-luciferase reporter, SF-1/DAX-1 repression relief; at 6.8 µM
The campaign covered roughly 370,000 compounds. About 4,100 (1.1%) were called active.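 The calls were made as follows: active = inhibition above the mean over all tested compounds plus 3 SD (cut at about 3.6% in these data); inactive = the rest.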 Many of the other results were omitted from the sample, so actives are more common in it than they were.
Give one outcome, nothing more. List: t = active, f = inactive

Would you please look over these solved cases?
Cc1ccc(CS(=O)Cc2ccc(C(=O)N3CCOCC3)o2)cc1 (stereo not given): f
Cc1ccc(S(=O)Cc2ccc(C(=O)N3CCN(C4CCCCC4)CC3)o2)cc1 (stereo not given): t

Q) Write down the call the test reported for this molecule. Item: O=S(=O)(c1ccccc1)N1CCC(c2nc3ccccc3o2)CC1
A) f

Q) Write down the call the test reported for this molecule. Item: C=CCN=C1NC(c2cccc(C(F)(F)F)c2)C(C(=O)OC)=C(C)N1C (stereo not given)
A) f

Q) Write down the call the test reported for this molecule. Item: COc1ccc(NC(=O)C2=CC(c3ccc(OC)c(OC)c3)=NS(=O)(=O)N2C)cc1
A) f

---

Task for the reader: assign each of the following compounds its reported inhibition.
methodSummary: DAX1 (NR0B1) inhibitors on StAR promoter, primary screen, cell-based, luminescence, SF-1 (NR5A1), full-length DAX-1 (AID 652010);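 also: 0% = DAX-1 cells with DMSO and 100% = cells lacking DAX-1 with DMSO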
reportedConditions: HEK293T StAR-luciferase reporter, SF-1/DAX-1 repression relief; at 6.8 µM; hits give high values
Among all 370,000 compounds or so, about 4,100 (1.1%) were called active. The list comes from a sample in which actives are over-represented; it also holds close analogues and randomly drawn compounds.

Some solved entries appear below for comparison.
C#CCNC(=O)C[C@H]1C[C@@]2(C(=O)OC)C(=C[C@H](C(C)C)O[C@@H]2C2CC2)N(Cc2ccco2)C1=O: 0.65% (inactive)
CN(C(=O)COC(=O)c1cc(=O)[nH]c2ccccc12)C1CCCCC1: 3.03% (inactive)
O=C(COc1ccc(Cl)cc1)N1CCN(S(=O)(=O)c2ccc(Cl)cc2)CC1: -0.62% (inactive)
Cc1cc(Br)ccc1NC(=S)NC1CCCC1: 0.19% (inactive)
COc1ccc(C(=O)NC2CC(C)(C)Cc3c2cnn3-c2ccccc2)c(OC)c1 (configuration not stated): -3.2% (inactive)
CCOC(=O)[C@]12CCCCC/C=C\1N(Cc1ccc(OC)cc1)C(=O)[C@H]2CC(=O)NCc1ccc(C)o1: 0.47% (inactive)
Cc1ccc(NC(=O)c2cc(C)nn2-c2ccccc2)c(C)c1: -0.54% (inactive)
COc1ccc2c(C(C)c3ccc(N)cc3)cn(C)c2c1 (configuration not stated): 0.02% (inactive)

Please go through the list and note inhibition for each compound.
1. N/C(=N\OC(=O)CCC1CCCCC1)c1ccccn1
2. O=C(CSc1nnc2n1CCCN2)c1ccccc1
3. COc1cccc(N(C)C(=O)[C@@H](C)[C@@H](O)c2ccc3ccccc3c2)c1
4. CCOC(=O)c1csc(NC(=O)C2CCCN(S(=O)(=O)c3ccc(Cl)s3)C2)n1 (configuration not stated)
5. N/C(=N\OC(=O)Cc1ccc([N+](=O)[O-])cc1)c1ccccn1
6. COC(=O)c1sc(NC(=O)c2ccc(OC)cc2OC)nc1C
7. COc1ccc(-n2c(COc3ccc(C)cc3)nnc2SCC(=O)Nc2ccc(Oc3ccccc3)cc2)cc1

A)
["4.25% (active)", "0.61% (inactive)", "-0.75% (inactive)", "-2.18% (inactive)", "0.83% (inactive)", "4.67% (active)", "-1.51% (inactive)"]
